All figures here come from the RNAGym collection of RNA variant scans (doi:10.7554/elife.80360).

B1: HDV Ribozyme (parent)
chain: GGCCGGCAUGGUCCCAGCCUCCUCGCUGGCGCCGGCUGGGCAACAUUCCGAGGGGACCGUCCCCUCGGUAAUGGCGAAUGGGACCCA

Variants of: B1
Test: self-cleavage, relative activity (ratio to wild type); higher = more cleavage; co-transcriptional
I would appreciate it if you labelled entries true (1) when self-cleavage is 0.2 or higher, otherwise false (0).

Example entries and their recorded answers appear below.
{"MUTATION_STRING": "C4U G55A", "CLASS": "true (1)"}
{"MUTATION_STRING": "U20C C64G", "CLASS": "false (0)"}
{"MUTATION_STRING": "U47G C58A", "CLASS": "true (1)"}
{"MUTATION_STRING": "U20C U46C", "CLASS": "false (0)"}
{"MUTATION_STRING": "U12C C66A", "CLASS": "true (1)"}
{"MUTATION_STRING": "C49A A83C", "CLASS": "true (1)"}
{"MUTATION_STRING": "G31C G80U", "CLASS": "false (0)"}
{"MUTATION_STRING": "U20A G76U", "CLASS": "false (0)"}

API: above_or_equal(metric=self-cleavage, cutoff=0.2) for item C14A G67U
true (1)

Could you please find out whether C57U C86U has self-cleavage that meets 0.2 or exceeds it?
true (1)
